Reported pIC50 values are given for each entry in this list.
- Test system: HT-29 colon carcinoma cells
- test: Sulforhodamine B cytotoxicity, HT-29
- Format: cell-based
- conditionDescription: Table 7, HT-29; 4320 min; read-out: Cytotoxicity (IC50)
The read-out pIC50 is expressed as -log10 of concentration in moles per litre.

CC(COC(=O)N1c2ccccc2C23OC24CCCC3C#CC=CC#CC14)S(=O)(=O)c1ccccc1 (centres unmarked) [Compound 428] | 4.89

**Q:** pIC50 lookup needed for CC(COC(=O)N1c2ccccc2C23OC24CCCC3C#CC=CC#CC14)S(=O)(=O)c1ccccc1 (centres unmarked) [Compound 427] , thanks.
**A:** 6.11

###

- Tested on: MCF-7 breast carcinoma cells
- test: Sulforhodamine B cytotoxicity, MCF-7
- Type: cell-based
- conditionDescription: Homo sapiens, MCF7, 72 h, Table 7, MCF-7; read-out: Cytotoxicity (IC50)
- Description: In addition to the screening already discussed, several of the before-described compounds and chimeras were screened against several or all of a panel of ten to twenty-five cancerous cell lines as target cells and seven "normal" cell preparations. This screening utilized a sulforhodamine B cytotoxidity assay as discussed below. IC50 values; i.e., the concentration of Compound required to kill one-half of the treated cells, were then calculated.
valueType: IC50 (µM)
// units = µM; emit number, no label

CC(C)(COC(=O)N1c2ccccc2[C@@]23O[C@]24CCC[C@H]3C#C/C=C\C#C[C@H]14)S(=O)(=O)c1ccccc1 (relative stereo) | 25

**Q:** IC50 lookup needed for O=C(Oc1ccccc1)N1c2ccccc2C23OC24CCCC3C#C/C=C\C#CC14 (centres unmarked) , thanks.
**A:** 3.1

###

- Tested on: M-14 melanoma cells
- test: Sulforhodamine B cytotoxicity, M-14
- Assay type: cell-based
- conditionDescription: Homo sapiens, M14
valueType: pIC50
The read-out pIC50 is expressed as -log10 of concentration in moles per litre.

**Q:** pIC50 lookup needed for O=C(OCCS(=O)(=O)c1ccccc1)N1c2ccc(OCCO)cc2C23OC24CCCC3C#C/C=C\C#CC14 (stereo not shown) , thanks.
**A:** 5.80

###

- System: MCF-7 breast carcinoma cells
- test: Sulforhodamine B cytotoxicity, MCF-7
- Type: cell-based
- conditionDescription: Table 7, MCF-7; 4320 min; read-out: Cytotoxicity (IC50)
valueType: IC50 (µM)
// units = µM; emit number, no label

**Q:** Request - read-out IC50 | tested on MCF-7 breast carcinoma cells | compound CC(COC(=O)N1c2ccccc2C23OC24CCCC3C#CC=CC#CC14)S(=O)(=O)c1ccccc1 (centres unmarked) [Compound 427]
**A:** 25

###

Reported pIC50 values are given for each entry in this list.
- System: MOLT-4 (Leukemia) cell line
- test: cells
- Format: cell-based
- conditionDescription: Table 7, Molt-4; read-out: Cytotoxicity (IC50)
The read-out pIC50 is expressed as -log10 of concentration in moles per litre.

CC(COC(=O)N1c2ccccc2C23OC24CCCC3C#CC=CC#CC14)S(=O)(=O)c1ccccc1 (centres unmarked) [Compound 428] | 6.00

Switching to the query record.
**Q:** Request - read-out pIC50 | tested on MOLT-4 (Leukemia) cell line | compound CC(COC(=O)N1c2ccccc2C23OC24CCCC3C#CC=CC#CC14)S(=O)(=O)c1ccccc1 (centres unmarked) [Compound 427]
**A:** 9.00
